Reference for the values: PubChem BioAssay AID2108

- system: Alpha-galactosidase A (Homo sapiens)
- assay text: Confirmation of Inhibitors of Human alpha-Galactosidase Using Spleen Homogenate
- condition info: alpha-galactosidase enzyme activity; series mostly up to 56.2 µM
- Experimental: NIH Chemical Genomics Center [NCGC] NIH Molecular Libraries Probe Production Centers Network [MLPCN] Assay Submitter (PI): Wei Zheng […] This is a fluorogenic enzyme assay with 4-methylumbelliferyl-alpha-D-galactopyranoside as the substrate and human spleen homogenate containing alpha-galactosidase as the enzyme preparation. […] The AC50 values were determined from concentration-response data modeled with the standard Hill equation. […]
Inconclusive results are not listed. Calls of active or inactive are those of the source. Calls follow the shape of the dose curve; as a rule, active = well fitted curve in the direction sought with a large enough effect; inconclusive = small, poorly fitted or top-dose-only effect, or effect the other way, or another doubt; inactive = no such curve, though single readings can be large or run the other way.
test readout: outcome

See these solved cases before continuing.
compound | outcome
O=c1oc2ccccc2cc1-c1csc(Cc2nc3c(s2)CCCC3)n1 | inactive
OCCN1CC(O)C(O)C(O)C1CO (centres undefined) | inactive
O=C(O)Cn1nnnc1SCC(=O)Nc1ccc(OC(F)(F)F)cc1 | inactive
O=C(Nc1nnc(-c2cccc(F)c2)s1)Nc1ccccc1F | inactive
Cc1c(C(=O)NCc2ccccc2F)oc2ccccc12 | inactive

I'm curious: which outcome was measured for "O=C(CSc1nc(C2CC2)nc2ccccc12)Nc1cccc(O)c1" tested on Alpha-galactosidase A (Homo sapiens)? inactive

I'm curious: which outcome was measured for "Cc1cc(/C=N/NC(=O)c2ccc(O)cc2)c(C)n1C1CC1" tested on Alpha-galactosidase A (Homo sapiens)? inactive

I'm curious: which outcome was measured for "Cc1ccc(CNc2ccc(N3CCOCC3)cc2)cc1" tested on Alpha-galactosidase A (Homo sapiens)? inactive

I'm curious: which outcome was measured for "CCCCn1c(CN2CCN(c3cccc(Cl)c3)CC2)nc2c1c(=O)n(C)c(=O)n2C" tested on Alpha-galactosidase A (Homo sapiens)? inactive

I'm curious: which outcome was measured for "Cc1cc(NC(=O)C(C)(C)C)cc(-c2nc3ncccc3o2)c1O" tested on Alpha-galactosidase A (Homo sapiens)? inactive

* * *

- system: Alpha-galactosidase A (Homo sapiens) (UniProt P06280)
- Sequence (P06280 32-429 limits assumed): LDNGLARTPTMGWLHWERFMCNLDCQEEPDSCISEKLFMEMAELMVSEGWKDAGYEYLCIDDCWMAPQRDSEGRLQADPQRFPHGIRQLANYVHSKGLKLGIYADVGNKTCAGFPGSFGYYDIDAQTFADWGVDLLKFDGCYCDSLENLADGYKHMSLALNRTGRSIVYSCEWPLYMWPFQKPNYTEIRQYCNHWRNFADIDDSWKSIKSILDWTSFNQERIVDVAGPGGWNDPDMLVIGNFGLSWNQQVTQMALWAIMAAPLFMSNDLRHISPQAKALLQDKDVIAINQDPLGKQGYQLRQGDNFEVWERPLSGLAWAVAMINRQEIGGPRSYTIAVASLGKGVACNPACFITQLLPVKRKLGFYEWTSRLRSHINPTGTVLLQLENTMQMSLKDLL
- assay text: Confirmation of Inhibitors of Human alpha-Galactosidase Using Spleen Homogenate
- condition info: alpha-galactosidase enzyme activity; series mostly up to 56.2 µM
Inconclusive results are not listed. Active and inactive are the calls of the source. Calls come from the whole dose curve; as a rule, active = well fitted curve in the direction sought with a large enough effect; inconclusive = small, poorly fitted or top-dose-only effect, or effect the other way, or another doubt; inactive = no such curve, though single readings can be large or run the other way.
test readout: outcome

See these solved cases before continuing.
compound | outcome
Cc1cccc(NC(=O)c2nc[nH]c2C(=O)N[C@@H](CCCCNC(=O)OC(C)(C)C)C(=O)OC(C)(C)C)c1 | inactive
CC(=O)c1ccc(S(=O)(=O)N2CCOCC2)cc1 | inactive
c1ccc(-n2c(-c3cccs3)nc3nc4ccccc4nc32)cc1 | inactive
Cc1nnc(SCC(=O)Nc2nsc(-c3ccc(C(C)(C)C)cc3)n2)s1 | inactive
COc1cccc(S(=O)(=O)N2CCOCC2)c1 | inactive
O=C(c1cccc2ccccc12)N1CCN(S(=O)(=O)c2ccccc2)CC1 | inactive

Look up outcome for this compound: CC(N=C(NC#N)Nc1ccncc1)C(C)(C)C (stereo not drawn) inactive

Look up outcome for this compound: "Nc1ccccc1S(=O)(=O)N1CCOCC1" inactive

Look up outcome for this compound: "Cc1ccc(S(=O)(=O)N2CCOCC2)cc1" inactive

Look up outcome for this compound: "N=c1sccn1CC(=O)Nc1cc(S(=O)(=O)N2CCCC2)ccc1Cl" inactive

Look up outcome for this compound: "O=C(CSc1ncc(C(F)(F)F)cc1Cl)N1CCN(S(=O)(=O)c2ccccc2)CC1" inactive

Look up outcome for this compound: CC1CC(C)CN(CC(=O)N2c3ccccc3CCc3ccccc32)C1 (stereo not drawn) inactive

Look up outcome for this compound: "Cn1c(=O)c2sccc2n2c(CCCC(=O)Nc3ccc(F)c(F)c3)nnc12" inactive

Look up outcome for this compound: "Cc1c(Nc2c3ccccc3nc3ccccc23)c(=O)n(-c2ccccc2)n1C" inactive
